target: VEGF165 (recombinant human vascular endothelial growth factor, 165 aa form) (Homo sapiens, UniProt P15692-4 P15692-4:27-191); assay: filter; PBS, 0.01% HSA, 37 C; Kd1, X1 0.40, Kd2 11 nM; conditions: tags: gift from N. Ferrara, Genentech; chain copies: 2 (dimer, stated); label: 32P
Sequence (P15692 other isoform, or with tags, fused parts or gaps): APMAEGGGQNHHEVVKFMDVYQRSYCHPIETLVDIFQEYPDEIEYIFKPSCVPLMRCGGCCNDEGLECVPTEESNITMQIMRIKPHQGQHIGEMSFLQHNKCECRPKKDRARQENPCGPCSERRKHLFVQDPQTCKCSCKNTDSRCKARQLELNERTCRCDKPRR
quantity: pKd
pKd (log units): -log10 of the concentration in mol/L.

Quote pKd reported for ligand 126 (ssRNA) RNA: GGGAGCUCAGAAUAAACGCUCAAACGGUUCUGUGUGUGGACUAGCCGCGGCCGUUCGACAUGAGGCCCGGAUCCGGC please.
9.85

Origin of values: patent US5811533
